B1: Zinc finger MYM-type protein 3, residues 405 to 444; numbered along this chain, Q14202 (parent)
chain: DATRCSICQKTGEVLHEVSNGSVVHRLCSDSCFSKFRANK

variants of: B1; assay: abundance fitness (aPCA) (normalised: wild type 0, dead -1); higher = more abundant; growth selection in yeast, the domain comes from the species named; details: Homo sapiens
VALUE TYPE: abundance fitness
Field format: numeric only.

{"columns": ["ALTERATION", "EXPERIMENTAL RESULT"],
 "data": [
  ["D30K", -0.109],
  ["A38Q", -0.072],
  ["G21E", 0.008]
]}

Reported abundance fitness ( R37F ) = -0.506

// sample N39P , its abundance fitness was 0.043

Summary for this variant, K35M : abundance fitness is 0.078

Data provenance: the Human Domainome abundance scans (Beltran et al. 2025)
